Data origin: the CheMixHub drug solubility set

PROCEDURE DETAILS: xn = mol fraction of the nth substance listed, in the solute-free solvent
TEST SETTINGS: 293.15 K; x2 = 0.4
Param threshold (0.2) applies to solubility (g/100 g solution); output label 1 when value >= threshold, label 0 when value < threshold.

Use the examples below as a reference point.
Cc1ncc(C[n+]2csc(CCO)c2C)c(N)n1.O=[N+]([O-])[O-] + O + CC(C)O
label 0
CC(N)C(=O)O (stereo not given) + O + CO
label 1
OCCN(CCO)c1nc(N2CCCCC2)c2nc(N(CCO)CCO)nc(N3CCCCC3)c2n1 + CC(C)O + O
label 1

Could you verify whether the entry CC(N)C(=O)O (stereo not given) + O + CC(C)=O shows solubility (g/100 g solution) of no less than 0.2? label 0

====

Catalogue of solubility (g/100 g solution) readings, one per entry.
PROCEDURE DETAILS: xn = mol fraction of the nth substance listed, in the solute-free solvent
TEST SETTINGS: 303.15 K; x2 = 0.06974

Solved entries:
Nc1nccnc1Cl + CC(C)O + O
0.237
c1ccc2[nH]c(-c3cscn3)nc2c1 + CCCO + O
0.0319
Cc1[nH]c(=O)c(C#N)cc1-c1ccncc1 + CC(C)O + O
0.00374
Nc1cccc(S(=O)(=O)c2cccc(N)c2)c1 + CC(C)O + O
0.34
CN1CCN(C2=Nc3cc(Cl)ccc3Nc3ccccc32)CC1 + CC(C)O + O
0.0733

Let us move to another entry and its solubility (g/100 g solution).
Supply solubility (g/100 g solution) value. Item: c1ccc2[nH]c(-c3cscn3)nc2c1 + CC(C)O + O 0.0183

====

PROCEDURE DETAILS: xn = mol fraction of the nth substance listed, in the solute-free solvent
TEST SETTINGS: 313.15 K; x2 = 0.7297
EXPERIMENTAL READOUT: solubility (g/100 g solution)
I'd appreciate a reply containing only the number, no unit.

Solved entries:
Nc1nccnc1Cl + CC(C)O + O
1.67
c1ccc2[nH]c(-c3cscn3)nc2c1 + CC(C)O + O
0.47
c1ccc2[nH]c(-c3cscn3)nc2c1 + CCCO + O
0.883
Nc1cccc(S(=O)(=O)c2cccc(N)c2)c1 + CC(C)O + O
1.72
CN1CCN(C2=Nc3cc(Cl)ccc3Nc3ccccc32)CC1 + CC(C)O + O
2.68

Let us move to another entry and its solubility (g/100 g solution).
Supply solubility (g/100 g solution) value. Item: Cc1[nH]c(=O)c(C#N)cc1-c1ccncc1 + CC(C)O + O 0.0243

====

Catalogue of solubility (g/100 g solution) readings, one per entry.
PROCEDURE DETAILS: xn = mol fraction of the nth substance listed, in the solute-free solvent
TEST SETTINGS: 298.15 K; x2 = 0.8
I'd appreciate a reply containing only the number, no unit.

Solved entries:
Cc1ncc(C[n+]2csc(CCO)c2C)c(N)n1.O=[N+]([O-])[O-] + O + CO
2.54
S=c1[nH]ncs1 + CC(C)=O + O
29.1
OCCN(CCO)c1nc(N2CCCCC2)c2nc(N(CCO)CCO)nc(N3CCCCC3)c2n1 + CC(C)O + O
8.26
S=c1[nH]ncs1 + CCCO + O
13.1
OCCN(CCO)c1nc(N2CCCCC2)c2nc(N(CCO)CCO)nc(N3CCCCC3)c2n1 + CO + O
3.31

Supply solubility (g/100 g solution) value. Item: OCCN(CCO)c1nc(N2CCCCC2)c2nc(N(CCO)CCO)nc(N3CCCCC3)c2n1 + CCO + O 6.52

Supply solubility (g/100 g solution) value. Item: S=c1[nH]ncs1 + CO + O 16

Supply solubility (g/100 g solution) value. Item: Cc1ncc(C[n+]2csc(CCO)c2C)c(N)n1.O=[N+]([O-])[O-] + O + CC(C)O 2.15

Supply solubility (g/100 g solution) value. Item: Cc1ncc(C[n+]2csc(CCO)c2C)c(N)n1.O=[N+]([O-])[O-] + O + CC(C)=O 2.97

Supply solubility (g/100 g solution) value. Item: CCCCCOC(=O)Nc1nc(=O)n(C2OC(C)C(O)C2O)cc1F (stereo unspecified) + CCOC(C)=O + CCCCCCC 1.27

Supply solubility (g/100 g solution) value. Item: S=c1[nH]ncs1 + CCO + O 15

====

PROCEDURE DETAILS: xn = mol fraction of the nth substance listed, in the solute-free solvent
TEST SETTINGS: 318.15 K; x2 = 0.08908
Catalogue of solubility (g/100 g solution) readings, one per entry.
I'd appreciate a reply containing only the number, no unit.

Supply solubility (g/100 g solution) value. Item: Nc1cccc(S(=O)(=O)c2cccc(N)c2)c1 + CCO + O 0.788

Supply solubility (g/100 g solution) value. Item: CC(C)OC(=O)C(C)NP(=O)(OCC1OC(n2ccc(=O)[nH]c2=O)C(C)(F)C1O)Oc1ccccc1 (centres undefined) + CCO + O 10.9

Supply solubility (g/100 g solution) value. Item: COc1cc2c(cc1OC)-c1cc3ccc(OC)c(OC)c3c[n+]1CC2.[Cl-] + CCO + O 5.08

Supply solubility (g/100 g solution) value. Item: Cc1[nH]c(=O)c(C#N)cc1-c1ccncc1 + CCO + O 0.00285

====

PROCEDURE DETAILS: xn = mol fraction of the nth substance listed, in the solute-free solvent
TEST SETTINGS: 318.15 K; x2 = 0.5
Param threshold (20) applies to solubility (g/100 g solution); output 1.0 when value >= threshold, 0.0 when value < threshold.

CCCCCOC(=O)Nc1nc(=O)n(C2OC(C)C(O)C2O)cc1F (stereo not drawn) + CCOC(C)=O + CCCCCCC
0.0

Could you verify whether the entry OCCN(CCO)c1nc(N2CCCCC2)c2nc(N(CCO)CCO)nc(N3CCCCC3)c2n1 + CC(C)O + O shows solubility (g/100 g solution) of no less than 20? 1.0

Could you verify whether the entry S=c1[nH]ncs1 + CCO + O shows solubility (g/100 g solution) of no less than 20? 1.0

Could you verify whether the entry S=c1[nH]ncs1 + CCCO + O shows solubility (g/100 g solution) of no less than 20? 1.0

Could you verify whether the entry S=c1[nH]ncs1 + CC(C)=O + O shows solubility (g/100 g solution) of no less than 20? 1.0

Could you verify whether the entry OCCN(CCO)c1nc(N2CCCCC2)c2nc(N(CCO)CCO)nc(N3CCCCC3)c2n1 + CCO + O shows solubility (g/100 g solution) of no less than 20? 1.0

Could you verify whether the entry OCCN(CCO)c1nc(N2CCCCC2)c2nc(N(CCO)CCO)nc(N3CCCCC3)c2n1 + CO + O shows solubility (g/100 g solution) of no less than 20? 0.0

====

PROCEDURE DETAILS: xn = mol fraction of the nth substance listed, in the solute-free solvent
TEST SETTINGS: 313.15 K; x2 = 0.3698
EXPERIMENTAL READOUT: solubility (g/100 g solution)

Solved entries:
Cc1[nH]c(=O)c(C#N)cc1-c1ccncc1 + CCO + O
0.00763
COc1cc2c(cc1OC)-c1cc3ccc(OC)c(OC)c3c[n+]1CC2.[Cl-] + CCO + O
5.44
Nc1cccc(S(=O)(=O)c2cccc(N)c2)c1 + CCO + O
1.92

Let us move to another entry and its solubility (g/100 g solution).
Supply solubility (g/100 g solution) value. Item: CC(C)OC(=O)C(C)NP(=O)(OCC1OC(n2ccc(=O)[nH]c2=O)C(C)(F)C1O)Oc1ccccc1 (centres undefined) + CCO + O 33.2

====

PROCEDURE DETAILS: xn = mol fraction of the nth substance listed, in the solute-free solvent
TEST SETTINGS: 308.15 K; x2 = 0.04165
EXPERIMENTAL READOUT: solubility (g/100 g solution)

Supply solubility (g/100 g solution) value. Item: COc1cc2c(cc1OC)-c1cc3ccc(OC)c(OC)c3c[n+]1CC2.[Cl-] + CCO + O 3.46

====

PROCEDURE DETAILS: xn = mol fraction of the nth substance listed, in the solute-free solvent
TEST SETTINGS: 308.15 K; x2 = 0.5454
Catalogue of solubility (g/100 g solution) readings, one per entry.
I'd appreciate a reply containing only the number, no unit.

Nc1nccnc1Cl + CC(C)O + O
1.38
Cc1[nH]c(=O)c(C#N)cc1-c1ccncc1 + CC(C)O + O
0.02
c1ccc2[nH]c(-c3cscn3)nc2c1 + CC(C)O + O
0.347
c1ccc2[nH]c(-c3cscn3)nc2c1 + CCCO + O
0.699
CN1CCN(C2=Nc3cc(Cl)ccc3Nc3ccccc32)CC1 + CC(C)O + O
1.96

Let us move to another entry and its solubility (g/100 g solution).
Supply solubility (g/100 g solution) value. Item: Nc1cccc(S(=O)(=O)c2cccc(N)c2)c1 + CC(C)O + O 1.4
